# Tested on: KMS.12.BM cell line (human myeloma)
# method: KMS.12.BM cell viability assay
# Format: cell-based
# assay_conditions: Homo sapiens, 72 h; KMS.12.BM cells, 3 days, Cell Titer-GLO ATP quantitation; read-out: KMS cellular IC50
value_type: IC50

compound	IC50
Cc1nnc2ccc3c(cc(-c4ccn(CCC(=O)N(C)C)n4)n3Cc3cccc(Cl)c3)n12 [Example 103]	≤ 1000 nM

// switching to the query compound
Data request: // fetch IC50 for Cc1cc2c(cc(N[C@H]3CCN(C)[C@@H](C)C3)c3nnc(C)n32)n1Cc1ccccc1 (racemic) [Example 224] ; system: KMS.12.BM cell line (human myeloma)
Data returned: ≤ 1000 nM

----------
# system_under_test: BRD4-BD1 (Homo sapiens (Human))
# method: BRD4 AlphaScreen assay (BRD4-BD1)
# Type: binding
# assay_conditions: H4Ac4 peptide, 3.8 nM BRD4-BD1, read-out: BRD4 BD-1 enzyme IC50
value_type: IC50

Data request: State its IC50 for this molecule: Cc1cc2c(cc(N[C@H]3CCN(C)[C@@H](C)C3)c3nnc(C)n32)n1Cc1ccccc1 (racemic)
Data returned: ≤ 0.1 µM

----------
# Tested on: KMS.12.BM cell line (human myeloma)
# method: KMS.12.BM cell viability assay
# Type: cell-based
# assay_conditions: KMS.12.BM cells, 3 days, Cell Titer-GLO ATP quantitation; read-out: KMS cellular IC50
value_type: IC50

Data request: State its IC50 for this molecule: `Cc1nnc2ccc3c(cc(-c4cc[nH]n4)n3Cc3cccc(CN4CCC4)c3)n12`
Data returned: ≤ 1 µM

----------
# system_under_test: BRD4-BD2 (Homo sapiens (Human))
# method: BRD4 AlphaScreen assay (BRD4-BD2)
# assay_conditions: H4Ac4 peptide, 20 nM BRD4-BD2, read-out: BRD4 BD-2 enzyme IC50
value_type: IC50

Data request: State its IC50 for this compound: Cc1cc2c(cc(N[C@H]3CCN(C)[C@@H](C)C3)c3nnc(C)n32)n1Cc1ccccc1 (racemic) [Example 224]
Data returned: ≤ 100 nM
